tested on: HeLa-ACE2 cells; test: Uninfected HeLa-ACE2 24 h live/dead cytotoxicity counter screen; format: cell-based, human; details: detail block; read-out: HeLa-ACE2 uninfected cytotoxicity CC50 GeoMean
quantity kind: CC50 (µM)

INSERT INTO results (compound, quantity_kind, readout_value) VALUES
  ('CN(C)CC1=C[CH]([Fe][CH]2C=CC=C2)C=C1CNc1ccnc2cc(Cl)ccc12 (stereo not shown)', 'CC50', 13.4);

====

test: Uninfected Calu-3 48 h Cell-Titer Glo cytotoxicity counter screen; conditions: human, uninfected Calu-3 cells, Calu-3 uninfected cytotoxicity CC50 GeoMean, unrounded geometric mean
Structures can show the parent of a compound that is named as a salt.
quantity kind: CC50 at 48 h

INSERT INTO measurements (compound, quantity_kind, readout_value) VALUES
  ('COCc1c(C(C)C)nc(C(C)C)c(/C=C/[C@@H](O)C[C@@H](O)CC(=O)O)c1-c1ccc(F)cc1 [Cerivastatin sodium]', 'CC50 at 48 h', '> 29.9 µM'),
  ('N=C(N)c1ccc2cc(OC(=O)c3ccc(N=C(N)N)cc3)ccc2c1 [Nafamostat mesylate]', 'CC50 at 48 h', '> 29.9 µM'),
  ('COC(=O)[C@]12CCC(C)(C)C[C@H]1[C@H]1C(=O)C=C3[C@@]4(C)C=C(C#N)C(=O)C(C)(C)[C@@H]4CC[C@@]3(C)[C@]1(C)CC2 [Bardoxolone methyl]', 'CC50 at 48 h', '3.06 µM');

====

Please consider the recorded uninfected Calu-3 CC50 for Calu-3 cells in what follows.
quantity kind: uninfected Calu-3 CC50

INSERT INTO assay_data (smiles_text, readout_value) VALUES
  ('Nc1nc(Nc2ccc3c(c2)CC[C@@H](N2CCCC2)CC3)nn1-c1cc2c(nn1)-c1ccccc1CCC2', '19.024 ×÷ 1.18 (n=3) μM'),
  ('Cc1cccc(/C=N/Nc2cc(N3CCOCC3)nc(OCCc3ccccn3)n2)c1', '> 22.719 ×÷ 1.728 (n=4) μM'),
  ('COc1ccc2cc1Oc1ccc(cc1)C[C@H]1c3c(cc4c(c3Oc3cc5c(cc3OC)CCN(C)[C@@H]5C2)OCO4)CCN1C', '> 27.816 ×÷ 1.096 (n=3) μM'),
  ('Cn1c(C#N)ccc1-c1ccc2c(c1)C(C)(C)OC(=S)N2', '> 19.278 ×÷ 2.07 (n=3) μM');

====

pEC50 values by entry
test system: SARS-CoV-2; assay: microbe, parasite or virus in culture; format: cell-based; conditions: read-out: Calu-3 CoV-2 EC50 GeoMean
pEC50: −log10 of the molar value.
quantity kind: pEC50

INSERT INTO assay_data (compound, readout_value) VALUES
  ('CN(C)CC1=C[CH]([Fe][CH]2C=CC=C2)C=C1CNc1ccnc2cc(Cl)ccc12 (stereo not drawn)', '< 5.00'),
  ('Cc1cccc(/C=N/Nc2cc(N3CCOCC3)nc(OCCc3ccccn3)n2)c1 [Apilimod - control]', 5.73),
  ('Cc1cccc(/C=N/Nc2cc(N3CCOCC3)nc(OCCc3ccccn3)n2)c1 [Apilimod]', '< 5.03');

====

Overview of recorded HepG2 72-hour cytotoxicity Sinf Average for various compounds
tested on: HepG2; test: HepG2 72 h CellTiter-Glo cytotoxicity; conditions: 72 h
Counter-ions that a name gives are not always drawn.
quantity kind: HepG2 72-hour cytotoxicity Sinf Average

INSERT INTO results (compound, system_under_test, readout_value) VALUES
  ('COc1ccc(C[C@H](N)C(=O)N[C@H]2[C@@H](O)[C@H](n3cnc4c(N(C)C)ncnc43)O[C@@H]2CO)cc1 [Puromycin - cytotoxicity control]', 'HepG2', '-101%'),
  ('CC(C)(C)Cn1c(N)nc2ccc(-c3[nH]c(C(C)(C)C)nc3-c3ccc(F)cc3)nc21 [Ralimetinib mesylate/LY2228820, Ralimetinib mesylate]', 'HepG2', '-100%'),
  ('Cc1ccc(NC(=O)c2ccc(CN3CCN(C)CC3)cc2)cc1Nc1nccc(-c2cccnc2)n1 [Imatinib mesylate]', 'HepG2', '-100%'),
  ('Cc1c(-c2ccc(O)cc2)n(Cc2ccc(OCCN3CCCCCC3)cc2)c2ccc(O)cc12 [Bazedoxifene acetate]', 'HepG2', '-99%'),
  ('CCN(CC)Cc1cc(Nc2ccnc3cc(Cl)ccc23)ccc1O', 'HepG2', '-80%'),
  ('Cc1c(O)cccc1C(=O)N[C@@H](CSc1ccccc1)[C@H](O)CN1C[C@H]2CCCC[C@H]2C[C@H]1C(=O)NC(C)(C)C [Nelfinavir mesylate]', 'HepG2', '-100%'),
  ('CCCCc1oc2ccccc2c1C(=O)c1cc(I)c(OCCN(CC)CC)c(I)c1', 'HepG2', '-100%'),
  ('CCC(CC)COC(=O)[C@H](C)NP(=O)(OC[C@H]1O[C@@](C#N)(c2ccc3c(N)ncnn23)[C@H](O)[C@@H]1O)Oc1ccccc1 (some centres unmarked) [Remdesivir - control]', 'HepG2', '-100%'),
  ('CCN(CCO)CCCC(C)Nc1ccnc2cc(Cl)ccc12 (centres unmarked) [Hydroxychloroquine sulfate]', 'HepG2', '-100%'),
  ('CCCCN(CCCC)CCC(O)c1cc2c(Cl)cc(Cl)cc2c2cc(C(F)(F)F)ccc12 (centres unmarked) [Halofantrine HCl]', 'HepG2', '-100%'),
  ('CCCCCCOC(=O)NC(=N)c1ccc(NCc2nc3cc(C(=O)N(CCC(=O)OCC)c4ccccn4)ccc3n2C)cc1 [Dabigatran etexilate mesilate]', 'HepG2', '-96%'),
  ('CCc1ccc2c(c1)N(CC(C)CN(C)C)c1ccccc1S2 (centres unmarked) [Ethylisobutrazine hydrochloride]', 'HepG2', '-100%'),
  ('CN1CC2c3ccccc3Oc3ccc(Cl)cc3C2C1 (centres unmarked) [Asenapine maleate]', 'HepG2', '-100%'),
  ('COc1cc(-n2cnc3cc(-c4ccc(Cl)cc4)sc3c2=O)ccc1OCCN1CCCC1', 'HepG2', '-100%');
